Target: SaSiaT (Staphylococcus aureus, UniProt A0A0H2XJ46)
Sequence (A0A0H2XJ46 entry or part of it): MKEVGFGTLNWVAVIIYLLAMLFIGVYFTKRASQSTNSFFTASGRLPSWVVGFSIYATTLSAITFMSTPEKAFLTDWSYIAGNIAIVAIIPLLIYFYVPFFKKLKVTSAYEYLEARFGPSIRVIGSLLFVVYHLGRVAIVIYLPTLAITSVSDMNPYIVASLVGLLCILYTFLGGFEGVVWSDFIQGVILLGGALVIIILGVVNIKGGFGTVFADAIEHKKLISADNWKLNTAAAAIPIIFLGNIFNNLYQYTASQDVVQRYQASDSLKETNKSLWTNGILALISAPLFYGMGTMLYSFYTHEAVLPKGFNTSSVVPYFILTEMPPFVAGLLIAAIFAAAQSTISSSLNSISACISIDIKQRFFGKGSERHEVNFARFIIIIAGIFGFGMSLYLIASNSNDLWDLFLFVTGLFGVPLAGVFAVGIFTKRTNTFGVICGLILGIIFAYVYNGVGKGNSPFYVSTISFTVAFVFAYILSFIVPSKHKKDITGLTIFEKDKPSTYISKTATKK
Test: nanoDSF thermal shift assay, SaSiaT
Assay type: binding
Settings: SaSiaT Tm, experiment 1, second capillary, 1.25 mM
Overview of recorded Replicate 1 for various compounds

Some solved entries appear below for comparison.
- Compound: "CC(=O)NC1C(OCc2cc(F)cc(F)c2)CC(O)(C(=O)O)OC1C(O)C(O)CO (stereo not shown)"
  Result: "57.3 °C"
- Compound: "CC(C)C(=O)NC1C(O)CC(O)(C(=O)O)OC1C(O)C(O)CO (stereo not shown)"
  Result: "45.0 °C"
- Compound: "CC(=O)NC1C(OCc2ccc(F)cc2)CC(O)(C(=O)O)OC1C(O)C(O)CO (stereo not shown)"
  Result: "56.4 °C"
- Compound: "CC(=O)NC1C(O)CC(O)(C(=O)O)OC1C(O)C(C)O (stereo not shown)"
  Result: "42.9 °C"
- Compound: "CC(=O)NC1C(OCc2ccccc2)CC(O)(C(=O)O)OC1C(O)C(O)CO (stereo not shown)"
  Result: "56.1 °C"
- Compound: "[N-]=[N+]=NCC(=O)N[C@H]1[C@H]([C@H](O)[C@H](O)CO)O[C@@](O)(C(=O)O)C[C@@H]1O [Compound 6h, reference compound]"
  Result: "52.7 °C"

Here is another compound to look at.
Query: Fill in the recorded Replicate 1 for this compound, with SaSiaT (Staphylococcus aureus, UniProt A0A0H2XJ46) as test system: CSCC(O)C(O)C1OC(O)(C(=O)O)CC(O)C1NC(C)=O (stereo not shown)
Result: 50.9 °C
